Measured TGI, listed per entry.
Test system: SK-MEL-5 melanoma
test: NCI tumour cell line growth inhibition, 48 h
Write it as a number; the unit µM goes unstated.

Study these solved cases before continuing.
According to the records, this compound `O=C1c2ccccc2C(=O)c2[nH]c(=O)c(/C=N/Nc3ccc([N+](=O)[O-])cc3)nc21` displays TGI of 2.82

According to the records, this compound Cc1ccc(NCCN(C)CC(C)O)c2c(=O)c3ccc(Cl)cc3sc12 (stereo unspecified) displays TGI of 3.01

According to the records, this compound `CCN(CCc1ccc(F)cc1)c1ccc(CO)c(Cl)c1` displays TGI of 25.9

Continuing:
According to the records, this compound `Cc1cc2cc(Oc3ccnc(Nc4cccc(CS(=O)(=O)NCCN(C)C)c4)n3)ccc2[nH]1` displays TGI of 3.5

According to the records, this compound `O=C(C1=CCC2(CC1)OCCO2)N(Cc1ccccc1)c1ccccc1I` displays TGI of 30.1

According to the records, this compound `C/C(=N/NC(=S)Nc1cccc(Cl)c1)c1cccc(/C(C)=N\NC(=S)Nc2cccc(Cl)c2)n1` displays TGI of 35

According to the records, this compound `COc1ccc(OC)c2c1C(=O)C(Cl)=C(Cl)C2=O` displays TGI of 14.1

According to the records, this compound `CCCCCn1ncc(-c2c(O)c(O)cc3c(O)c(-c4c(C)cc5c(-c6cnn(CCCCC)n6)c(O)c(O)cc5c4O)c(C)cc23)n1` displays TGI of 2.31

According to the records, this compound `C/C=C1/CN2CC[C@@H]3c4ccccc4N4[C@H](C(=O)OC)[C@H]1C[C@H]2[C@]34/C=C/C1=COC[C@@H]2[C@H]1C[C@H]1c3c(c4ccccc4n3C)C[C@@H]2N1C` displays TGI of 7.48

According to the records, this compound `CC1=CC(=O)c2cccc(O)c2C1=O` displays TGI of 3.29

According to the records, this compound CSc1ccc2c(cc1=O)C(NC(=O)c1cc(O)c(OC(=O)O)c(O)c1)CCc1cc(O)c(O)c(O)c1-2 (stereo unspecified) displays TGI of 29.1

According to the records, this compound `COc1ccc(Oc2nc3cc(C(F)(F)F)ccc3nc2C(C)C)cc1` displays TGI of 52.2

According to the records, this compound `CC(C)(C)c1ccc(NC(=O)c2cc(=O)c3ccccc3[nH]2)c(C(C)(C)C)c1O` displays TGI of 19

According to the records, this compound Fc1ccc(C(OCCN2CC3CC2CN3CCCc2ccccc2)c2ccc(F)cc2)cc1 (stereo unspecified) displays TGI of 3.39

According to the records, this compound `O=C(N/N=C/c1cc(Br)cc(Br)c1[O-])c1ccccc1O.O=C(N/N=C/c1cc(Br)cc(Br)c1[O-])c1ccccc1O.[Cl-].[Fe+3]` displays TGI of 12.3

According to the records, this compound `CCCN(CCC)C(=O)Cc1c2n(c3ccccc13)CCCc1ccccc1-2` displays TGI of 27.4

According to the records, this compound `COc1ccc(C(F)(F)F)cc1NC(=O)O/N=C(/Cl)C(C)C` displays TGI of 25.5

According to the records, this compound CNC1=C(Br)C(=O)C2=C(C1=O)C1C3=C(C(=O)C=CC3=O)C2c2ccccc21 (stereo unspecified) displays TGI of 18.6
